- target under test: Cytochrome P450 2D6 (Homo sapiens) (UniProt P10635)
- Sequence (P10635 whole entry, looked up): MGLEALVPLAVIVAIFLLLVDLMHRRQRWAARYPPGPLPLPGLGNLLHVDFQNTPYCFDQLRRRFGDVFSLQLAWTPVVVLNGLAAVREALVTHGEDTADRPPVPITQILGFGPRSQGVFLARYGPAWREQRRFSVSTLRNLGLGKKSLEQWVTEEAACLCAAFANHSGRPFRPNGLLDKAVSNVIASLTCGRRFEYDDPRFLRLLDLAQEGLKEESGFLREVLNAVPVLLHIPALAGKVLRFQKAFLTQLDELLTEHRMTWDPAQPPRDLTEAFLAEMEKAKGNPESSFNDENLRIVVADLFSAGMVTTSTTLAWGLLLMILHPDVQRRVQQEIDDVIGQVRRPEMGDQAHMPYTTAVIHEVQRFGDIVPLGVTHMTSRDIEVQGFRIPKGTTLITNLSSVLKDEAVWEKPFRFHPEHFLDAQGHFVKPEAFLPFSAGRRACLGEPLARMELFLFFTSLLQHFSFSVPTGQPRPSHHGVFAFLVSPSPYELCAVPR
- experiment notes: Cytochrome P450 family 2 subfamily D member 6 (CYP2D6) small molecule antagonists: luciferase biochemical (cell-free) qHTS assay (AID 1645840); also: nearly all actives have a fitted effect of over 55% in size
- settings: P450-Glo CYP2D6 enzyme, luciferin luminescence, 1 h; series mostly up to 57.4 µM
Records with an inconclusive call do not appear. Calls of active or inactive are those of the source. Calls follow the shape of the dose curve; as a rule, active = well fitted inhibition curve with a large enough effect in the repeat runs; inconclusive = weak or mixed curves; inactive = flat fitted curve, though single readings scatter.
Answer with one of the outcomes given here: active, inactive

Known results for compounds:
INSERT INTO results (compound, category) VALUES
  ('O=C1NC(=O)[C@@]2(CCOc3ccc(F)cc32)N1', 'inactive'),
  ('OCC(O)CN1CCN(c2ccccc2)CC1 (stereo not given)', 'inactive'),
  ('O=C(O)[C@@H]1CSCN1', 'inactive'),
  ('CN1CCN(C2Cc3ccccc3Sc3ccc(Cl)cc32)CC1 (stereo not given)', 'active'),
  ('Cc1cc(C(C#N)c2ccc(Cl)cc2)c(Cl)cc1NC(=O)c1cc(I)cc(I)c1O (stereo not given)', 'active');

// param item: `c1ccc(CN(CC2=NCCN2)c2ccccc2)cc1` ; yields the recorded call
active

Okay, and `NCC(=O)CCC(=O)O` ?
inactive

Okay, and C[C@H](NC(CCc1ccccc1)C(=O)O)C(=O)N1CCC[C@H]1C(=O)O (stereo not given in full) ?
inactive
